- PROTOCOL_DETAILS: Selectivity index, ratio of IC50 for cytotoxicity against African green monkey Vero cells to MIC for antitubercular activity against Mycobacterium tuberculosis H37Rv ATCC 27294
- Format: toxicity, cell-based
- TEST_CONTEXT: read-out: Selectivity Index
Kindly state selectivity ratio for each of the entries shown.
Answers are plain numbers.

Worked set:
{"QUERY_SMILES": "O=C(NCc1cn(Cc2ccc(C(F)(F)F)cc2)nn1)c1cnccn1", "VALUE_OBSERVED": 219}
{"QUERY_SMILES": "O=C(NCc1cn(Cc2ccc([N+](=O)[O-])cc2)nn1)c1cccnc1", "VALUE_OBSERVED": 298}
{"QUERY_SMILES": "N#Cc1ccc(Cn2cc(CNC(=O)c3cnccn3)nn2)cc1", "VALUE_OBSERVED": 342}
{"QUERY_SMILES": "O=C(NCc1cn(Cc2ccc([N+](=O)[O-])cc2)nn1)c1cnccn1", "VALUE_OBSERVED": 258}
{"QUERY_SMILES": "N#Cc1ccc(Cn2cc(CNC(=O)c3cccnc3)nn2)cc1", "VALUE_OBSERVED": 256}
{"QUERY_SMILES": "O=C(NCc1cn(Cc2ccc(F)cc2)nn1)c1cnccn1", "VALUE_OBSERVED": 318}

Qu. Which value of selectivity ratio has been reported for O=C(NCc1cn(Cc2ccc(C(F)(F)F)cc2)nn1)c1cccnc1 in the records?
Ans. 216

Value source: ChEMBL document CHEMBL4602648
